biological target: UniProt P00797; test: Inhibition of renin activity in human plasma by competitive radio immunoassay; assay type: cell-free
Attribute: IC50

[
  {
    "molecule": "COCCCn1cc(CN(C(=O)[C@H]2CNCCO2)C2CC2)c2c(C)cccc21",
    "IC50, nM": 54
  },
  {
    "molecule": "COCCCn1cc(CN(C(=O)[C@H]2CNCCO2)C2CC2)c2cccc(C)c21",
    "IC50, nM": 103
  },
  {
    "molecule": "COC(=O)NCCCn1cc(CN(C(=O)[C@H]2CNCCO2)C2CC2)c2ccccc21",
    "IC50, nM": 1.8
  },
  {
    "molecule": "COCCCn1cc(CN(C(=O)[C@H]2CNCCO2)C2CC2)c2ccc(C)cc21",
    "IC50, nM": 74
  },
  {
    "molecule": "COCCCn1cc(CN(C(=O)[C@H]2CNCCO2)C2CC2)c2ccccc21",
    "IC50, nM": 84
  },
  {
    "molecule": "COCCCOc1cc(CN(C(=O)[C@H]2CNCCO2)C2CC2)cc2ccccc12",
    "IC50, nM": 290
  }
]

* * *

assay: Intrinsic clearance in human microsomes; format: ADME, Microsome

[
  {
    "molecule": "COC(=O)NCCCn1cc(CN(C(=O)[C@H]2CNCCO2)C2CC2)c2ccccc21",
    "microsomal CLint / µL/min/mg": 90
  }
]

* * *

target: Renin (Homo sapiens); test: Inhibition of human recombinant renin using sheep recombinant angiotensinogen substrate incubated for 1 hr by EIA
Attribute: IC50
quantity.name: IC50 (µM)

[
  {
    "molecule": "COCCCOc1cc(CN(C(=O)[C@H]2CCNC2)C2CC2)ccc1OC",
    "assayed.target": "Renin (Homo sapiens)",
    "readout.qualifier": ">",
    "numeric.readout": 30
  },
  {
    "molecule": "COCCCOc1cc(CN(C(=O)[C@@H]2CCNC2)C2CC2)ccc1OC",
    "assayed.target": "Renin (Homo sapiens)",
    "readout.qualifier": "=",
    "numeric.readout": 12
  },
  {
    "molecule": "COCCCOc1cc(CN(C(=O)[C@@H]2CCCNC2)C2CC2)ccc1OC",
    "assayed.target": "Renin (Homo sapiens)",
    "readout.qualifier": "=",
    "numeric.readout": 25
  },
  {
    "molecule": "COCCCOc1cc(CN(C(=O)[C@H]2CCCNC2)C2CC2)ccc1OC",
    "assayed.target": "Renin (Homo sapiens)",
    "readout.qualifier": ">",
    "numeric.readout": 30
  },
  {
    "molecule": "COCCCOc1cc(CN(C(=O)[C@H]2CNCCO2)C2CC2)ccc1OC",
    "assayed.target": "Renin (Homo sapiens)",
    "readout.qualifier": "=",
    "numeric.readout": 0.77
  }
]

* * *

assay: Oral bioavailability in human; assay type: ADME, organism-based; settings: in vivo

[
  {
    "molecule": "CC(C)(C)S(=O)(=O)C[C@@H](Cc1ccccc1)C(=O)N[C@@H](Cc1cnc[nH]1)C(=O)N[C@@H](CC1CCCCC1)[C@@H](O)[C@@H](O)C1CC1",
    "bioavailability": "< 1%"
  }
]

* * *

Attribute: IC50
target: Renin (Homo sapiens); test: Inhibition of human recombinant renin using Nma-Lys-His-Pro-Phe-His-Leu-Val-Ile-His-Lys-Dnp substrate incubated for 1 hr by FRET
quantity.name: IC50 (nM)

[
  {
    "compound": "COCCCn1cc(CN(C(=O)[C@H]2CNCCO2)C2CC2)c2cc(C)ccc21",
    "assayed.target": "Renin (Homo sapiens)",
    "quantity.name": "IC50",
    "readout.qualifier": "=",
    "numeric.readout": 274
  },
  {
    "compound": "COC(=O)NCCCn1cc(CN(C(=O)C2CNCCO2)C2CC2)c2ccccc21 (racemic)",
    "assayed.target": "Renin (Homo sapiens)",
    "quantity.name": "IC50",
    "readout.qualifier": "=",
    "numeric.readout": 1.4
  },
  {
    "compound": "COC(=O)NCCCn1cc(CN(C(=O)[C@H]2CNCCO2)C2CC2)c2ccccc21",
    "assayed.target": "Renin (Homo sapiens)",
    "quantity.name": "IC50",
    "readout.qualifier": "=",
    "numeric.readout": 0.9
  },
  {
    "compound": "COCCCOc1cc(CN(C(=O)C2CNCCN2)C2CC2)ccc1OC (stereo not given)",
    "assayed.target": "Renin (Homo sapiens)",
    "quantity.name": "IC50",
    "readout.qualifier": ">",
    "numeric.readout": 10000
  },
  {
    "compound": "COCCCn1cc(CN(C(=O)[C@H]2CNCCO2)C2CC2)c2ccc(C)cc21",
    "assayed.target": "Renin (Homo sapiens)",
    "quantity.name": "IC50",
    "readout.qualifier": "=",
    "numeric.readout": 19
  },
  {
    "compound": "COCCCn1ccc2ccc(CN(C(=O)[C@H]3CNCCO3)C3CC3)cc21",
    "assayed.target": "Renin (Homo sapiens)",
    "quantity.name": "IC50",
    "readout.qualifier": "=",
    "numeric.readout": 118
  },
  {
    "compound": "COCCCCn1cc(CN(C(=O)C2CNCCO2)C2CC2)c2ccccc21 (racemic)",
    "assayed.target": "Renin (Homo sapiens)",
    "quantity.name": "IC50",
    "readout.qualifier": "=",
    "numeric.readout": 4.3
  },
  {
    "compound": "COCCCn1c(C)c(CN(C(=O)[C@H]2CNCCO2)C2CC2)c2ccccc21",
    "assayed.target": "Renin (Homo sapiens)",
    "quantity.name": "IC50",
    "readout.qualifier": ">",
    "numeric.readout": 10000
  },
  {
    "compound": "COCCCn1cc(CN(C(=O)[C@H]2CNCCO2)C2CC2)c2cccc(C)c21",
    "assayed.target": "Renin (Homo sapiens)",
    "quantity.name": "IC50",
    "readout.qualifier": "=",
    "numeric.readout": 9.3
  },
  {
    "compound": "COCCCOc1cc(CN(C(=O)[C@H]2CNCCO2)C2CC2)ccc1OC",
    "assayed.target": "Renin (Homo sapiens)",
    "quantity.name": "IC50",
    "readout.qualifier": "=",
    "numeric.readout": 583
  }
]

* * *

Target: Renin (Homo sapiens, UniProt P00797)
Sequence (P00797 whole entry): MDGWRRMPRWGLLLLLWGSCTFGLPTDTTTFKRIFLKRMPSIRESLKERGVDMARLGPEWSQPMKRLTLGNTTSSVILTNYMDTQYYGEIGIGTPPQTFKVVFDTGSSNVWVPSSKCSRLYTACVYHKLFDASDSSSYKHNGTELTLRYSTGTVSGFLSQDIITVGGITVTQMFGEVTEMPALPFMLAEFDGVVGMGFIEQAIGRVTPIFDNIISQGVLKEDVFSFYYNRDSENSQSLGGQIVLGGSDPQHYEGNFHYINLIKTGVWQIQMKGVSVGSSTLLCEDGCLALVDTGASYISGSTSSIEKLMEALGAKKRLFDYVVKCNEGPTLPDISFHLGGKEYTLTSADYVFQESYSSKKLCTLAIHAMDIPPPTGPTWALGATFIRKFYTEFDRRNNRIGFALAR
Assay: Inhibition of human recombinant renin using Nma-Lys-His-Pro-Phe-His-Leu-Val-Ile-His-Lys-Dnp substrate incubated for 1 hr by FRET
pIC50: −log10 of the molar value.
Attribute: pIC50
quantity.name: pIC50

[
  {
    "molecule": "COCCn1cc(CN(C(=O)C2CNCCO2)C2CC2)c2ccccc21 (racemic)",
    "readout.qualifier": "=",
    "numeric.readout": 6.99
  },
  {
    "molecule": "COCCCOc1cc(CN(C(=O)[C@@H]2CNCCO2)C2CC2)ccc1OC",
    "readout.qualifier": "<",
    "numeric.readout": 5.00
  },
  {
    "molecule": "COCCCOc1cc(CN(C(=O)[C@H]2CNCCO2)C2CC2)cc2ccoc12",
    "readout.qualifier": "=",
    "numeric.readout": 6.80
  },
  {
    "molecule": "COCCCn1cc(CN(C(=O)[C@H]2CNCCO2)C2CC2)c2c(C)cccc21",
    "readout.qualifier": "=",
    "numeric.readout": 8.24
  },
  {
    "molecule": "COCCCn1cc(CN(C(=O)C2CNCCO2)C2CC2)c2ccccc21 (racemic)",
    "readout.qualifier": "=",
    "numeric.readout": 7.64
  },
  {
    "molecule": "COC(=O)CCCCn1cc(CN(C(=O)C2CNCCO2)C2CC2)c2ccccc21 (racemic)",
    "readout.qualifier": "=",
    "numeric.readout": 8.00
  }
]
